Hey, just so you know, these numbers are from patent US6197963A.

Measured pKi accompanies every entry in the list below.
Molecular target: hSSTR3 (Homo sapiens)
Sequence (P32745 whole entry): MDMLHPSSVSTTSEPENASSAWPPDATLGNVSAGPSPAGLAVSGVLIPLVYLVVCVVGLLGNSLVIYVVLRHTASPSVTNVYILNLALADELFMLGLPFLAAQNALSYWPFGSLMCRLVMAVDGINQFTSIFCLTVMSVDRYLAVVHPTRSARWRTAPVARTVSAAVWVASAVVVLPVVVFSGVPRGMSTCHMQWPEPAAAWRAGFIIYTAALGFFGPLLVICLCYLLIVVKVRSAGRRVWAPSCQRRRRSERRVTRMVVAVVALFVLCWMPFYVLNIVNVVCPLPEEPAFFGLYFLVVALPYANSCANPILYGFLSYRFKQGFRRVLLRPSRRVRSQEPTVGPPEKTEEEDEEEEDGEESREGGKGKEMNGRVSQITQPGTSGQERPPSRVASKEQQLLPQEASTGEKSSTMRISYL
Test: Binding at human SRIF receptor subtype hSSTR3
Conditions: TABLE 3; read-out: hSSTR 3 Ki
pKi: −log10 of the molar value.
ATTRIBUTE MEASURED: pKi

{"COMPOUND": "CO[C@@H]1O[C@H](COCCCCCN)[C@@H](OCc2ccccc2)[C@H](OCc2ccccc2)[C@H]1OCc1ccccc1", "VAL": 5.52}
{"COMPOUND": "NCCCCCOC[C@H]1O[C@@H](OCCc2c[nH]c3ccccc23)[C@H](OCc2ccccc2)C[C@@H]1OCc1ccccc1", "VAL": 5.48}
{"COMPOUND": "NCCCCCOC[C@@H]1O[C@H](OCCc2c[nH]c3ccccc23)[C@H](OCc2c[nH]cn2)[C@H](OCc2ccccc2)[C@H]1OCc1ccccc1", "VAL": 6.05}
{"COMPOUND": "NCCCCCOC[C@H]1O[C@@H](OCCc2c[nH]c3ccccc23)[C@H](OCc2c[nH]cn2)C[C@@H]1OCc1ccccc1", "VAL": 5.21}
{"COMPOUND": "NCCCCCOC[C@H]1O[C@@H](OCCc2c[nH]c3ccccc23)[C@H](OCc2ccccc2)[C@@H](OCc2ccccc2)[C@@H]1OCc1ccccc1", "VAL": 5.55}
{"COMPOUND": "NCCCCCOC[C@@H]1O[C@H](OCCc2c[nH]c3ccccc23)[C@@H](OCc2ccccc2)[C@H](OCc2ccccc2)[C@H]1OCc1ccccc1", "VAL": 5.19}
{"COMPOUND": "NCCCCCOC[C@@H]1O[C@H](OCCc2c[nH]c3ccccc23)[C@H](OCc2ccccc2)[C@H](OCc2ccccc2)[C@H]1OCc1ccccc1", "VAL": 5.48}
{"COMPOUND": "NCCCCC(N)NC[C@H]1O[C@@H](OCCc2c[nH]c3ccccc23)[C@H](OCc2ccccc2)[C@@H](OCc2ccccc2)[C@@H]1OCc1ccccc1 (some centres unmarked)", "VAL": 6.22}
